Recorded IC50 values for a group of molecules are listed next.
Biological target: Cathepsin K (Oryctolagus cuniculus, UniProt P43236)
Construct: Active enzyme was produced by expressing cathepsin K in the form of a proenzyme; made in house; host or cells: Sf21 insect cells (baculovirus expression system)
Sequence (P43236 115-329): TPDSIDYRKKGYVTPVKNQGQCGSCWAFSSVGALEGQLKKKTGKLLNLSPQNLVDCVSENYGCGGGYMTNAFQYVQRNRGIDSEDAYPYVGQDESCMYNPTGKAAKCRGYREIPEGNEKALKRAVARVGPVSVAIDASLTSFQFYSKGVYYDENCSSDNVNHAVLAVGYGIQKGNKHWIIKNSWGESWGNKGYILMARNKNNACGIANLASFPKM
Experiment: Measurement of cathepsin K inhibitory activity (fluorescent substrate Z-Gly-Pro-Arg-MCA)
Type: biochemical
Settings: pH 6.0, 37° C., 30 minutes
Starred links: 1 amine or outer side, 2 acyl side, 3 side chain; linkers in the order of their positions; H or OH if unused. Non-standard residues stand in square brackets, D forms with d. Residues, ends and D or L forms follow the SMILES beside them. *: point of attachment. Ac6c = NC1(C(=O)O)CCCCC1; Morpholide = C1CN(*)CCO1; Nle = CCCC[C@H](N)C(=O)O; Cbz = O=C(OCc1ccccc1)*; CO = O=C([*:1])[*:2]
Just the number in nM, nothing appended.

Examples with answers:
[[record]]
molecule = "CCCC[C@@H](C=O)NC(=O)[C@H](CC(C)C)NC(=O)OCc1ccccc1 [Reference Example 194]"
unit = "nM"
reported = 3.5

[[record]]
molecule = "CCCC[C@@H](C=O)NC(=O)[C@H](CC(C)C)NC(=O)N1CCOCC1 [Reference Example 195]"
unit = "nM"
reported = 3

[[record]]
molecule = "CC(C)C[C@H](NC(=O)OCc1ccccc1)C(=O)N[C@H](C=O)C(C)C [Reference Example 193] (Cbz-Leu-Val-aldehyde)"
unit = "nM"
reported = 1.9

[[record]]
molecule = "CC(C)C[C@H](NC(=O)c1ccco1)C(=O)N[C@H](C=O)C(C)C [Reference Example 196]"
unit = "nM"
reported = 1.9

[[record]]
molecule = "CCCC[C@@H](C=O)NC(=O)C1(NC(=O)N2CCOCC2)CCCCC1 [Reference Example 192] ({Morpholide-CO}-[Ac6c]-[Nle]-aldehyde)"
unit = "nM"
reported = 22

[[record]]
molecule = "CC(C)[C@@H](C=O)NC(=O)C1(NC(=O)c2ccco2)CCCCC1 [Reference Example 191]"
unit = "nM"
reported = 0.54

[[record]]
molecule = "CCCC[C@@H](C=O)NC(=O)C1(NC(=O)OCc2ccccc2)CCCCC1 [Reference Example 190] (Cbz-[Ac6c]-[Nle]-aldehyde)"
unit = "nM"
reported = 4


Quick one: IC50 of CC(C)[C@@H](C=O)NC(=O)C1(NC(=O)OCc2ccccc2)CCCCC1 [Reference Example 189] (Cbz-[Ac6c]-Val-aldehyde) ?
1.7

====

biological target: Human cathepsin B (Homo sapiens, UniProt P07858); construct: purchased Calbiochem Corp; assay: Measurement of cathepsin B inhibitory activity (fluorescent substrate Z-Arg-Arg-MCA); format: biochemical; conditions: pH 6.0, 30° C., 30 minutes
Starred links: 1 amine or outer side, 2 acyl side, 3 side chain; linkers in the order of their positions; H or OH if unused. Non-standard residues stand in square brackets, D forms with d. Residues, ends and D or L forms follow the SMILES beside them. *: point of attachment. Ac6c = NC1(C(=O)O)CCCCC1; Morpholide = C1CN(*)CCO1; Nle = CCCC[C@H](N)C(=O)O; Cbz = O=C(OCc1ccccc1)*; CO = O=C([*:1])[*:2]
Measured IC50 values are reported for all entries that follow.
Could you give me the number in µM? Just the number is fine.

The following compounds have reported results that may help.
[[record]]
compound = "CC(C)C[C@H](NC(=O)OCc1ccccc1)C(=O)N[C@H](C=O)C(C)C [Reference Example 193] (Cbz-Leu-Val-aldehyde)"
unit = "µM"
reported = 0.11

[[record]]
compound = "CCCC[C@@H](C=O)NC(=O)[C@H](CC(C)C)NC(=O)OCc1ccccc1 [Reference Example 194]"
unit = "µM"
reported = 0.04

[[record]]
compound = "CC(C)C[C@H](NC(=O)c1ccco1)C(=O)N[C@H](C=O)C(C)C [Reference Example 196]"
unit = "µM"
reported = 0.057


Request the reported IC50 associated with CC(C)[C@@H](C=O)NC(=O)C1(NC(=O)c2ccco2)CCCCC1 [Reference Example 191]
0.047

Next compound: CCCC[C@@H](C=O)NC(=O)[C@H](CC(C)C)NC(=O)N1CCOCC1 [Reference Example 195]
0.013

Again, but for CC(C)[C@@H](C=O)NC(=O)C1(NC(=O)OCc2ccccc2)CCCCC1 [Reference Example 189] (Cbz-[Ac6c]-Val-aldehyde)
0.39

Can you handle CCCC[C@@H](C=O)NC(=O)C1(NC(=O)OCc2ccccc2)CCCCC1 [Reference Example 190] (Cbz-[Ac6c]-[Nle]-aldehyde) next?
0.14

Follow-up entry: CCCC[C@@H](C=O)NC(=O)C1(NC(=O)N2CCOCC2)CCCCC1 [Reference Example 192] ({Morpholide-CO}-[Ac6c]-[Nle]-aldehyde)
0.26

====

molecular target: Human cathepsin B (Homo sapiens); construct: purchased Calbiochem Corp; experiment: Measurement of cathepsin B inhibitory activity (fluorescent substrate Z-Arg-Arg-MCA); format: biochemical; details: selectivity ratio B/K
Starred links: 1 amine or outer side, 2 acyl side, 3 side chain; linkers in the order of their positions; H or OH if unused. Non-standard residues stand in square brackets, D forms with d. Residues, ends and D or L forms follow the SMILES beside them. *: point of attachment. Ac6c = NC1(C(=O)O)CCCCC1; Morpholide = C1CN(*)CCO1; Nle = CCCC[C@H](N)C(=O)O; Cbz = O=C(OCc1ccccc1)*; CO = O=C([*:1])[*:2]
property.measured: B/K (ratio of IC50 cathepsin B to IC50 cathepsin K)
Returns: the value as a bare number; no unit string appended.

As a guide, the following entries are already answered.
[[record]]
compound = "CCCC[C@@H](C=O)NC(=O)C1(NC(=O)N2CCOCC2)CCCCC1 [Reference Example 192] ({Morpholide-CO}-[Ac6c]-[Nle]-aldehyde)"
reported = 12

[[record]]
compound = "CC(C)[C@@H](C=O)NC(=O)C1(NC(=O)OCc2ccccc2)CCCCC1 [Reference Example 189] (Cbz-[Ac6c]-Val-aldehyde)"
reported = 230

[[record]]
compound = "CC(C)C[C@H](NC(=O)c1ccco1)C(=O)N[C@H](C=O)C(C)C [Reference Example 196]"
reported = 30

[[record]]
compound = "CCCC[C@@H](C=O)NC(=O)[C@H](CC(C)C)NC(=O)N1CCOCC1 [Reference Example 195]"
reported = 4.3

[[record]]
compound = "CCCC[C@@H](C=O)NC(=O)[C@H](CC(C)C)NC(=O)OCc1ccccc1 [Reference Example 194]"
reported = 11

[[record]]
compound = "CCCC[C@@H](C=O)NC(=O)C1(NC(=O)OCc2ccccc2)CCCCC1 [Reference Example 190] (Cbz-[Ac6c]-[Nle]-aldehyde)"
reported = 35

[[record]]
compound = "CC(C)[C@@H](C=O)NC(=O)C1(NC(=O)c2ccco2)CCCCC1 [Reference Example 191]"
reported = 87


Now look at this entry.
Please report the recorded B/K (ratio of IC50 cathepsin B to IC50 cathepsin K) for CC(C)C[C@H](NC(=O)OCc1ccccc1)C(=O)N[C@H](C=O)C(C)C [Reference Example 193] (Cbz-Leu-Val-aldehyde) .
58
